The following compounds are shown together with reported pIC50 values.
- SUBJECT_OF_TEST: UniProt:P23743
- Sequence (P23743 other isoform, or with tags, fused parts or gaps): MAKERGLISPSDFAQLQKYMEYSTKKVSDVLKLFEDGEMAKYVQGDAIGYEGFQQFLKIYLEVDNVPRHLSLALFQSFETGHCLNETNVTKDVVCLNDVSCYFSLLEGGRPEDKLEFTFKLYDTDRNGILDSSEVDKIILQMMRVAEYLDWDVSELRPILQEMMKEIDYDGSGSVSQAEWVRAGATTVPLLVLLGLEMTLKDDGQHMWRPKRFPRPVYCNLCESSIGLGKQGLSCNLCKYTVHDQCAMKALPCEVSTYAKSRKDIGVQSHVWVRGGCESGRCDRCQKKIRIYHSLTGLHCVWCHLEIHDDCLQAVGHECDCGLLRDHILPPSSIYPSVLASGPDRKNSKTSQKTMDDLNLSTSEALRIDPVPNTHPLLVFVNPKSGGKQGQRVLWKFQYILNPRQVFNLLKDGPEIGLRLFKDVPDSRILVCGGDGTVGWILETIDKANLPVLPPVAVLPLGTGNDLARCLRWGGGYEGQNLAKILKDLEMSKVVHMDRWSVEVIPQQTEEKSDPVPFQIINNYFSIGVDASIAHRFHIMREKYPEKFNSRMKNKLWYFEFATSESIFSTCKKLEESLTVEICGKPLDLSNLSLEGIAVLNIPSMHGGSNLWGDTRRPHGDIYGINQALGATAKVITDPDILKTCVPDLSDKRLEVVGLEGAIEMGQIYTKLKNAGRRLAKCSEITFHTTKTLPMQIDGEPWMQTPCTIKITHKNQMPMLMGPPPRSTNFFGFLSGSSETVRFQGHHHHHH
- PROTOCOL: DGKα LIPGLO assay (extruded liposome substrate)
- Assay type: biochemical
# pIC50: negative log10 of molar concentration; output just the value

Known pIC50 results, listed for orientation:
compound="CC(c1ccc(F)cc1)N1CCN(c2c(C#N)c(=O)n(C)c3ccc(Cl)nc23)CC1 (single isomer, unassigned) [Example 388]" property=pIC50 endpoint_result=7.29
compound=Cn1c(=O)c(C#N)c(N2CCN(Cc3ccccc3Cl)CC2)c2nc(Cl)ccc21 property=pIC50 endpoint_result=5.64
compound=Cn1c(=O)c(C#N)c(N2CCN(Cc3cccc(F)c3)CC2)c2nc(Cl)ccc21 property=pIC50 endpoint_result=6.47
compound=Cc1ccc(O)c(CN2CCN(c3c(C#N)c(=O)n(C)c4ccc(Cl)nc34)CC2)c1 property=pIC50 endpoint_result=6.68
compound="CC(c1ccc(F)cc1)N1CCN(c2c([N+](=O)[O-])c(=O)n(C)c3ccc(C#N)nc23)CC1 (single isomer, unassigned) [Example 45]" property=pIC50 endpoint_result=6.41
compound=Cn1c(=O)c(C#N)c(N2CCN([C@@H](c3ccccc3)c3ccc(Cl)cc3)CC2)c2nc(C#N)ccc21 property=pIC50 endpoint_result=5.05

Next up:
Dear colleague, I am looking for the recorded pIC50 of the following compound: COc1ccc2c(n1)c(N1CCN(C(c3ncccn3)c3ccc(F)cc3OC)CC1)c(C#N)c(=O)n2C (stereo not shown)
4.09
